I'd be grateful if you could share measured TGI for these entries.
Test system: SK-OV-3 ovarian
Experiment: NCI tumour cell line growth inhibition, 48 h

Record c1csc(-c2ccsc2-c2cccs2)c1 . Reported TGI: > 100 µM

Record C[N+](C)(C)CC(=O)N/N=C(/C(=O)Nc1ccc(Br)cc1)C1C(=O)NC(=O)NC1=O . Reported TGI: > 100 µM

Record Cc1ccc(-c2nc(N/N=C/c3ccc(O)cc3)c3ccccc3n2)cc1 . Reported TGI: > 100 µM

Record CC(C)(C)OC(=O)CN1CCNCCN(CC(=O)OC(C)(C)C)CCNCC1 . Reported TGI: > 100 µM

Record COC(=O)c1ccc(CN2C(=O)C(Cl)=C(Nc3cccc(Cl)c3C)C2=O)cc1 . Reported TGI: > 100 µM

Record CC(=O)Nc1ccc2[nH]c(C(=O)N3CC(CCl)c4c3cc([N+](=O)[O-])c3ccccc43)cc2c1 (stereo unspecified) . Reported TGI: > 65.1 µM

Record COC12C=C/C(=C(/C(=O)OCc3ccccn3)C(=O)CCCCCCCCC3(OC)C=C/C(=C(/C(=O)OCc4ccccn4)C(=O)CCCCCCCC1)O3)O2 . Reported TGI: 60.9 µM

Record COC(=O)c1c(C#N)c(N)nc2c1CCC2 . Reported TGI: > 100 µM

Record CC1=C(C(=O)Nc2ccccc2)C(c2cccc3ccccc23)C(C(=O)Nc2ccccc2)=C(C)N1 . Reported TGI: 38.5 µM

Record Cn1ncc2c(Cl)ncnc21 . Reported TGI: > 100 µM

Record COc1cc2c3c(n(C)c(=O)c2cc1OC)-c1cc2c(cc1/C3=C\CCCI)OCO2 . Reported TGI: > 100 µM

Record Clc1cccc(NN=Nc2ccc(-c3nc4ccccc4s3)cc2)c1 . Reported TGI: > 100 µM

Record NC1=Nc2cc(Cl)ccc2Sc2nc3ccccc3n21 . Reported TGI: > 100 µM

Record COc1ccc(-c2nc(-c3ccc(C)cc3)cn3ccnc23)cc1 . Reported TGI: > 50 µM

Record c1ccc2c3c([nH]c2c1)[C@H]1C2CCCCN2CN1CC3 (stereo partly specified) . Reported TGI: > 100 µM

Record C=C1CC(Cn2ccc(=O)[nH]c2=O)(c2ccc(Cl)cc2)OC1=O (stereo unspecified) . Reported TGI: 28.3 µM

Record O=C1C(c2ccc(Br)cc2)=[N+]([O-])c2ccccc21 . Reported TGI: > 100 µM

Record CC(N)(Cc1c[nH]c2cccc(F)c12)C(=O)O (stereo unspecified) . Reported TGI: > 1000 µM

Record COc1ccc([C@@H]2CC(=O)N2)cc1 . Reported TGI: > 100 µM

Record Nc1ncn2c(n1)nc1ccccc12 . Reported TGI: > 100 µM

Record CC1=C(SCCC(=O)OC(C[Se]C2=C(C)C(=O)c3ccccc3C2=O)C(=O)NCCCCCC(=O)OCc2ccccc2)C(=O)c2ccccc2C1=O (stereo unspecified) . Reported TGI: 19.7 µM

---

Test system: SNB-75 CNS
Assay: NCI tumour cell line growth inhibition, 48 h
I'd be grateful if you could share measured log10(TGI) for these entries.
Answers are given as log10 of TGI in µM.

Hey, SNB-75 CNS data for Cc1sc2c(c1C)/C(=N\O)c1cccn1-2 : log10(TGI) came out at 1.61

Hey, SNB-75 CNS data for Nc1ncn2c(n1)nc1ccccc12 : log10(TGI) came out at 1.90

Hey, SNB-75 CNS data for COc1ccc(/C(COc2ccc3oc(-c4ccccc4)cc(=O)c3c2)=N\O)cc1 : log10(TGI) came out at 1.37

Hey, SNB-75 CNS data for COc1ccc2c(c1)c(-c1nc(-c3c[nH]c4ccncc34)cs1)cn2C : log10(TGI) came out at 0.46

Hey, SNB-75 CNS data for CCCCCCCCCCCCCCCCOP(=O)(O)OCC(N)C(=O)O (configuration not stated) : log10(TGI) came out at 1.66

Hey, SNB-75 CNS data for Nc1ccc(C2=CC(c3ccc(Cl)cc3)N3C=CSC3=N2)cc1 (configuration not stated) : log10(TGI) came out at 1.36

Hey, SNB-75 CNS data for CC1=C(C(=O)Nc2ccccc2)C(c2cccc3ccccc23)C(C(=O)Nc2ccccc2)=C(C)N1 : log10(TGI) came out at 1.68

Hey, SNB-75 CNS data for Clc1cccc(NN=Nc2ccc(-c3nc4ccccc4s3)cc2)c1 : log10(TGI) came out at 1.82

Hey, SNB-75 CNS data for CC1CC/C(=C\c2ccc(F)cc2)C(=O)/C1=C/c1ccc(F)cc1 (configuration not stated) : log10(TGI) came out at 1.07

---

Tested on: COLO 205 colon
Assay: NCI tumour cell line growth inhibition, 48 h; in the data active means GI50 below about 0.43 µM; inactive means the rest
Outcome (select one): true (1) (active), false (0) (inactive)

How was CNC(=O)c1c(NC(=O)c2ccc(C(C)(C)C)cc2)sc2c(CN(C)C)c(O)ccc12 classified in this test? false (0)

How was COCc1c(-c2cc3cc(C)cc(OC)c3s2)c2c(N)ncnn2c1CN1CCNC(=O)C1 classified in this test? false (0)

How was CC1=C2[C@@H](CC1)[C@]1(C)O[C@@](C(C)C)(C[C@H]1OC(=O)CO)[C@H]2OC(=O)C1CC1c1ccccc1 (some centres undefined) classified in this test? false (0)

How was COc1ccc(CN2c3ccccc3Sc3ccccc32)c(C(F)(F)F)c1 classified in this test? false (0)

How was CC(C)(C)c1ccc(Oc2ccc(N)cn2)cc1 classified in this test? false (0)

How was COc1ccc2c(c1OC)CO[C@@H]2[C@H]1c2c(cc3c(c2OC)OCO3)CCN1S(=O)(=O)c1cn(C)cn1 classified in this test? false (0)

How was NC(=O)c1cc([N+](=O)[O-])c(Cl)c([N+](=O)[O-])c1Cl classified in this test? true (1)

How was CNC(=O)c1c(NC(=O)c2ccc(C(C)(C)C)cc2)sc2c1CCC(=O)C2 classified in this test? true (1)

How was Cc1cc2c(cc1Cl)S/C(=C/C(=O)O)C(Nc1ccc3ncsc3c1)=NS2(=O)=O classified in this test? false (0)

---

System: HT29 colon
Experiment: NCI tumour cell line growth inhibition, 48 h
I'd be grateful if you could share measured TGI for these entries.

Record CC1=C2[C@@H](CC1)[C@]1(C)O[C@@](C(C)C)(C[C@H]1OC(=O)CO)[C@H]2OC(=O)C1CC1c1ccccc1 (stereo not given in full) . Reported TGI: 28.3 µM

Record CCOC(=O)C(Cc1ccc(OC(=O)OC(C)(C)C)cc1)NC(=O)OC(C)(C)C (stereo not given) . Reported TGI: > 100 µM

Record Cc1cc(S(=O)(=O)Nc2nnc3cnc4ccccc4n23)c(S)cc1Cl . Reported TGI: > 100 µM

Record C=CCN(CCNS(=O)(=O)c1ccc(C)cc1)S(=O)(=O)c1ccc(C)cc1 . Reported TGI: > 100 µM

Record NNC(=S)NCCNC(=S)NN . Reported TGI: > 100 µM

---

I'd be grateful if you could share measured TGI for these entries.
Tested on: T-47D breast
Assay: NCI tumour cell line growth inhibition, 48 h

Record CCCCCCCCCCCCCCC(O)C[N+](C)(CCO)CCO (stereo not given) . Reported TGI: 30.6 µM

Record CC(=O)Oc1c(-c2ccccc2)sc2ccccc12 . Reported TGI: 44.5 µM

Record C=C(C)COC1CCCCO1 (stereo not given) . Reported TGI: > 100 µM

Record Cc1ccc(-c2nc(N/N=C/c3ccc(O)cc3)c3ccccc3n2)cc1 . Reported TGI: 26 µM

Record O=C(/C=C/c1cccc(Oc2ccccc2)c1)NCc1ccc(C(=O)NCCc2ccccc2)cc1 . Reported TGI: > 100 µM

Record CC(=O)Nc1ccc2[nH]c(C(=O)N3CC(CCl)c4c3cc([N+](=O)[O-])c3ccccc43)cc2c1 (stereo not given) . Reported TGI: 9.92 µM

Record COc1cc2c3c(n(C)c(=O)c2cc1OC)-c1cc2c(cc1/C3=C\CCCI)OCO2 . Reported TGI: > 95.4 µM

Record Nc1ncn2c(n1)nc1ccccc12 . Reported TGI: > 100 µM

Record O=C(N/N=C\c1ccc(N(CCCl)CCCl)cc1[N+](=O)[O-])c1cccnc1 . Reported TGI: > 100 µM

Record O=C(Nc1cccc(O)c1)c1ccc(NC2=C(Cl)C(=O)N(Cc3ccc(Cl)cc3Cl)C2=O)cc1 . Reported TGI: > 21.2 µM

Record C[C@@H]1C(=O)C[C@H]2C(C)(C)CCC[C@]2(C)[C@@]1(O)CCc1ccoc1 . Reported TGI: > 100 µM

Record COc1ccc(N=NC(=O)NC(CC(C)C)C(N)=O)cc1 (stereo not given) . Reported TGI: > 100 µM

Record CCOC(=O)Oc1cc2c(c(OC)c1OC)-c1ccc(OC)c(=O)cc1C(NC(C)=O)CC2 (stereo not given) . Reported TGI: > 100 µM

Record O=C(O)c1cnc(-n2[nH]c3c(c2=O)CCCC3)[nH]c1=O . Reported TGI: > 100 µM

Record COc1ccc2c(c1OC)CO[C@@H]2[C@H]1c2c(cc3c(c2OC)OCO3)CCN1S(=O)(=O)c1cn(C)cn1 . Reported TGI: > 100 µM
